Biological target: Interleukin-1 receptor-associated kinase 4 (Homo sapiens, UniProt Q9NWZ3)
Sequence (Q9NWZ3 whole entry): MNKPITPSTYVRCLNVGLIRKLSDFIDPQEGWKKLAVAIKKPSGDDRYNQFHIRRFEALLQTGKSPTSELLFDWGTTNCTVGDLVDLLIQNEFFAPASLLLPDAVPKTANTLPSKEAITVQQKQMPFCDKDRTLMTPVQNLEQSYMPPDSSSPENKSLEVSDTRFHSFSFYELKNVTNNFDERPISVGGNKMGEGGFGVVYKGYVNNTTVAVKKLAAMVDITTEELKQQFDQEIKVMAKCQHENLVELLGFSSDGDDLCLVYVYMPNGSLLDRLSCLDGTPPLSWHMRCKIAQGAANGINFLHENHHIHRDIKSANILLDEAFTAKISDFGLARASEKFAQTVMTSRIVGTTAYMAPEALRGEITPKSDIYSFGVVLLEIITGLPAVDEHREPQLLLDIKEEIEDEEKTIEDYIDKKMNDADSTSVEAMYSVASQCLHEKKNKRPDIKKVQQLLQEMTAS
Test: IMAP technology (Molecular Devices): A 20 ul reaction mixture contains 10 mM TriHCl, pH 7.2, 0.5 nM GST tagged IRAK4 (SignalChem), 100 nM fluorescent peptide substrate (RP7030, Molecular Devices), 100 uM ATP, 1 mM DTT, 1 mM MgCl2, and 0.01% Tween 20. The reaction is initiated by the addition of ATP. After incubation for 30 minutes at 25° C., 60 ul of Progressive IMAP Reagent (Molecular Devices) is added to stop the reaction. Change in RP7030's FP is determined by a FP reader (Analyst HT, LJL BioSystems).
pIC50: −log10 of the molar value.
Collected pIC50 values appear next to each entry.
ENDPOINT LABEL: pIC50

COMPOUND | RESULT VALUE
CC1(Nc2nc(N[C@@H]3C[C@H](CO)[C@@H](O)[C@H]3O)c(-c3nc4ccccc4s3)c(=O)[nH]2)CCC1 | 5.77
O=c1[nH]c(N2CCC3(CC2)CNC3)nc(N[C@@H]2CCCNC2)c1-c1nc2ccccc2s1 | 7.40
Nc1ccc2c(c1)CN(c1nc(N[C@@H]3CCCNC3)c(-c3nc4ccccc4s3)c(=O)[nH]1)CC2 | 7.31
CC(C)(C)OC(=O)N1CC2(CCN(c3nc(N[C@@H]4CCCNC4)c(-c4nc5ccccc5s4)c(=O)[nH]3)CC2)C1 | 7.57
N[C@H]1CCCC[C@H]1Nc1cccc2sc(-c3c(N[C@@H]4CCCNC4)nc(N4CCOCC4)[nH]c3=O)nc12 (racemic) | 7.15
N[C@H]1CCCC[C@H]1Nc1cccc2sc(-c3c(N[C@@H]4CCCNC4)nc(N4CCOCC4)[nH]c3=O)nc12 | 8.70
CN1CCC(c2nc(N[C@@H]3CCCNC3)c(-c3nc4ccccc4s3)c(=O)[nH]2)CC1 | 6.16
CS(=O)(=O)N1CCN(c2nc(N[C@@H]3CCCNC3)c(-c3nc4c(C5CC5)nccc4s3)c(=O)[nH]2)CC1 | 8.16
O=c1[nH]c(N2CCc3ccccc3C2)nc(N[C@@H]2CCCNC2)c1-c1nc(-c2ccc(F)cc2)cs1 | 7.24
O=c1[nH]c(N2CCc3ccccc3C2)nc(N[C@@H]2C[C@H](CO)[C@@H](O)[C@H]2O)c1-c1nc2ccccc2s1 | 7.56
